# tested.system: Nav1.7 (or SCN9A) channel; HEK cells stably transfected with hSCN9A (Homo sapiens, UniProt Q15858)
# Construct: expressed in transfected cells
# Sequence (Q15858 whole entry): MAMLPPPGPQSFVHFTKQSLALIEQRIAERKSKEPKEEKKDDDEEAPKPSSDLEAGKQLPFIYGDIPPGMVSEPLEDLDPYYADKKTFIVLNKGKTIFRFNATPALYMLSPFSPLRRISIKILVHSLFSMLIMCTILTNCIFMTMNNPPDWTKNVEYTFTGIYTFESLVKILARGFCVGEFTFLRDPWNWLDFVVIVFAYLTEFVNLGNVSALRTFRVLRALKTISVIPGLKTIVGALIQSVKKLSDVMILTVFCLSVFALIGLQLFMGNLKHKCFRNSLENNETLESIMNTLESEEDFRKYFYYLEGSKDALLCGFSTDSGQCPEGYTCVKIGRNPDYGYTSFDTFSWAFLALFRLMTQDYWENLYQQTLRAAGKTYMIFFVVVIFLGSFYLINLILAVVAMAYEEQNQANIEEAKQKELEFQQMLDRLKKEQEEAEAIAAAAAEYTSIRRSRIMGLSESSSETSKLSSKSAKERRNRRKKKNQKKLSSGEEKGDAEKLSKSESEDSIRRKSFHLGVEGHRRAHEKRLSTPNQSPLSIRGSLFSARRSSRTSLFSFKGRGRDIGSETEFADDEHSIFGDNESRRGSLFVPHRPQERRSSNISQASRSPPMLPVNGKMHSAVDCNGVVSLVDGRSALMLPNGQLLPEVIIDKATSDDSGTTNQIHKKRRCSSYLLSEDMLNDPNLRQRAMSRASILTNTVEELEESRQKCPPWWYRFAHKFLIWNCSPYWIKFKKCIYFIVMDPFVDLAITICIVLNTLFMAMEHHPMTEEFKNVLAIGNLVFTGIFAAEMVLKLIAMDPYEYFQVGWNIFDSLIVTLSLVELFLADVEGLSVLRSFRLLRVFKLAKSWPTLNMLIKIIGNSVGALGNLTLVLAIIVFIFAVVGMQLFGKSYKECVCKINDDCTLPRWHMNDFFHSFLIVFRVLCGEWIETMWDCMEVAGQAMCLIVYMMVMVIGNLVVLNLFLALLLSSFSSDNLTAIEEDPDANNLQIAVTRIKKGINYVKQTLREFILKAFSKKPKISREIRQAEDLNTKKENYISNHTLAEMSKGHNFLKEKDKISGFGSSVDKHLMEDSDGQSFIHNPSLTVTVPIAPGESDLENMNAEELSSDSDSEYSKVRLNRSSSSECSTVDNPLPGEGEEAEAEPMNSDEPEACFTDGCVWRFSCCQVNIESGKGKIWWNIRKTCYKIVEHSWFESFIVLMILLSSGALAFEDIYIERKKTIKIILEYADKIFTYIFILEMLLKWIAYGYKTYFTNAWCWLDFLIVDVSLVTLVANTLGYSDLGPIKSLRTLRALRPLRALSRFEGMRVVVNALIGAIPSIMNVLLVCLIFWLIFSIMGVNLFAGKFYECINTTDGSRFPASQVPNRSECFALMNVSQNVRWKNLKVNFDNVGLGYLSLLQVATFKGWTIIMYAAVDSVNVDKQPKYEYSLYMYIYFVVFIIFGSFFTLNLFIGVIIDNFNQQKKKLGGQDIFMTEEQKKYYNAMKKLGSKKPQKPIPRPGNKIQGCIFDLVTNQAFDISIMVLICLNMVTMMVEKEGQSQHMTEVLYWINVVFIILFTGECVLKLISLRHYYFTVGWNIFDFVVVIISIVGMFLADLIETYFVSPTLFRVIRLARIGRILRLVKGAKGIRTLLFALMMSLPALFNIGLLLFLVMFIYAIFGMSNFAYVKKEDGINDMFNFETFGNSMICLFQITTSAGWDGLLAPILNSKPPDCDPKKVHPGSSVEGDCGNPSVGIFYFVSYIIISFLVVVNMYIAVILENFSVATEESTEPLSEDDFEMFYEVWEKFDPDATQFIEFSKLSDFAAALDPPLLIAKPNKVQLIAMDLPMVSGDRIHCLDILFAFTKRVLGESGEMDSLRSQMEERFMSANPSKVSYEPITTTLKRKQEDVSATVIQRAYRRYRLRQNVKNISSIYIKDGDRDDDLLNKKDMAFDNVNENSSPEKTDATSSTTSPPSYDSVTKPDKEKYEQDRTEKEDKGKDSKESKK
# assay.info: Nav1.7 block, PatchXpress 7000 automated whole-cell voltage clamp, estimated IC50 (EIC50)
# Format: cell-based
# assay.context: PatchXpress platform; hSCN9A HEK cells held at V1/2 of inactivation; estimated IC50

compound	unit.abbrev	IC50
COCc1ccc(Oc2ccc(S(=O)(=O)Nc3nccs3)cc2F)c(-c2ccnn2C)c1 [Example 234]	µM	0.09
Cc1nn(C)c(C)c1Cc1ccc(Oc2ccc(S(=O)(=O)Nc3nccs3)cc2F)cc1 [Example 118]	µM	18.4
Cc1n[nH]cc1-c1ccccc1Oc1ccc(S(=O)(=O)Nc2nccs2)cc1C#N [Example 200]	µM	0.1
N#Cc1cc(S(=O)(=O)Nc2nccs2)ccc1Oc1cc(-c2ccc(Cl)cc2)nn1CC(F)(F)F [Example 189]	µM	2.8

###

# tested.system: Nav1.7 (or SCN9A) channel; HEK cells stably transfected with hSCN9A (Homo sapiens, UniProt Q15858)
# Construct: expressed in transfected cells
# assay.info: Nav1.7 block, PatchXpress 7000 automated whole-cell voltage clamp, estimated IC50 (EIC50)
# Assay type: cell-based
# assay.context: estimated IC50; hSCN9A HEK cells, PatchXpress platform; Examples 815-1040
reported.property: log10 IC50 (log10 of the value in nM)

cpd.smiles	log10 IC50
N#Cc1cc(S(=O)(=O)Nc2ncns2)ccc1Oc1ccc(Cl)cc1-c1ccnc(NC2CCC2)c1	0.36
N#Cc1cc(S(=O)(=O)Nc2nncs2)ccc1Oc1ccc(Cl)cc1-c1ccnc(N2CCNCC2)c1	0.32
Cn1cc(-c2cc(Cl)ccc2Oc2ccc(S(=O)(=O)Nc3ncns3)cc2C#N)ccc1=O	2.89
N#Cc1cc(S(=O)(=O)Nc2ncns2)ccc1Oc1ccc(Cl)cc1-c1cc(N2CCNCC2)ncn1	1.70
Nc1n[nH]cc1-c1cc(Cl)ccc1Oc1cc(F)c(S(=O)(=O)Nc2cccnn2)cc1Cl	1.53
O=C(c1cccc(-c2cc(Cl)ccc2Oc2cc(F)c(S(=O)(=O)Nc3ncns3)cc2Cl)n1)N1CCC1	0.64
CN(C)c1n[nH]cc1-c1cc(Cl)ccc1Oc1cc(F)c(S(=O)(=O)Nc2nncs2)cc1Cl	2.15
O=S(=O)(Nc1cccnn1)c1ccc(Oc2ccc(Cl)cc2-c2ccnnc2)c(Cl)c1	2.73
O=S(=O)(Nc1ncns1)c1ccc(Oc2ccc(C(F)(F)F)cc2-c2ccnnc2)c(C(F)(F)F)c1	0.40
Cn1nccc1-c1cc(Cl)ccc1Oc1ccc(S(=O)(=O)Nc2ncccn2)cc1Cl	1.88
N#Cc1cc(S(=O)(=O)Nc2ncns2)ccc1Oc1ccc(C(F)(F)F)cc1-c1ccc[n+]([O-])c1	2.04
O=S(=O)(Nc1cscn1)c1cc(Cl)c(Oc2ccc(Cl)cc2-c2ccnnc2)cc1F	1.61
O=S(=O)(Nc1ccc(F)cn1)c1cc(F)c(Oc2ccc(Cl)cc2-c2ccnnc2)cc1F	2.36
Cn1nccc1-c1cc(Cl)ccc1Oc1ccc(S(=O)(=O)Nc2cccnn2)cc1Cl	2.38

###

# tested.system: Nav1.7 (or SCN9A) channel; HEK cells stably transfected with hSCN9A (Homo sapiens)
# Construct: expressed in transfected cells
# assay.info: Nav1.7 block, PatchXpress 7000 automated whole-cell voltage clamp, estimated IC50 (EIC50)
# Format: cell-based
# assay.context: estimated IC50; hSCN9A HEK cells, PatchXpress platform; Examples 283-814
IC50 vs 0.2 µM: less than gives Met; not less than gives Not met.

cpd.smiles	tested.system	assigned.category
Cn1nccc1-c1cc(F)ccc1Oc1ccc(S(=O)(=O)Nc2ncc(F)s2)cc1C#N	Nav1.7 (or SCN9A) channel; HEK cells stably transfected with hSCN9A (Homo sapiens)	Met
O=S(=O)(Nc1cscn1)c1cc(Cl)c(Oc2ccc(C(F)(F)F)cc2-c2cn[nH]c2)cc1F	Nav1.7 (or SCN9A) channel; HEK cells stably transfected with hSCN9A (Homo sapiens)	Met
O=S(=O)(Nc1ncns1)c1cc(Cl)c(Oc2ccc(F)cc2-c2ccnn2C2CNC2)cc1F	Nav1.7 (or SCN9A) channel; HEK cells stably transfected with hSCN9A (Homo sapiens)	Met
N#Cc1cc(S(=O)(=O)Nc2cscn2)ccc1Oc1ccc(C(F)(F)F)cc1-c1cnn(C2CNC2)c1	Nav1.7 (or SCN9A) channel; HEK cells stably transfected with hSCN9A (Homo sapiens)	Not met
N#Cc1cc(S(=O)(=O)Nc2ccc(F)cn2)ccc1Oc1ccccc1-c1ccccc1	Nav1.7 (or SCN9A) channel; HEK cells stably transfected with hSCN9A (Homo sapiens)	Not met
Cn1nccc1-c1ccc(Oc2ccc(S(=O)(=O)Nc3ncc(F)s3)cc2C#N)c(C#N)c1	Nav1.7 (or SCN9A) channel; HEK cells stably transfected with hSCN9A (Homo sapiens)	Not met
Cn1nncc1-c1cc(F)ccc1Oc1cc(F)c(S(=O)(=O)Nc2cscn2)cc1Cl	Nav1.7 (or SCN9A) channel; HEK cells stably transfected with hSCN9A (Homo sapiens)	Not met
CCn1nc(C(F)(F)F)cc1-c1ccc(Oc2ccc(S(=O)(=O)Nc3nccs3)cc2C#N)cc1F	Nav1.7 (or SCN9A) channel; HEK cells stably transfected with hSCN9A (Homo sapiens)	Not met
N#Cc1cc(S(=O)(=O)Nc2nccs2)ccc1Oc1ccc(-n2cc(F)cn2)cc1	Nav1.7 (or SCN9A) channel; HEK cells stably transfected with hSCN9A (Homo sapiens)	Not met
Cn1nccc1-c1cc(Cl)ccc1Oc1ccc(S(=O)(=O)Nc2ncc(C#N)cn2)cc1C#N	Nav1.7 (or SCN9A) channel; HEK cells stably transfected with hSCN9A (Homo sapiens)	Not met
Cn1ncnc1-c1cc(Cl)ccc1Oc1ccc(S(=O)(=O)Nc2nccs2)cc1F	Nav1.7 (or SCN9A) channel; HEK cells stably transfected with hSCN9A (Homo sapiens)	Not met
Cn1nccc1-c1cc(F)ccc1Oc1cc(F)c(S(=O)(=O)Nc2csnn2)cc1Cl	Nav1.7 (or SCN9A) channel; HEK cells stably transfected with hSCN9A (Homo sapiens)	Not met
Cn1cc(-c2cc(Cl)ccc2Oc2ccc(S(=O)(=O)Nc3nccs3)cc2C#N)cn1	Nav1.7 (or SCN9A) channel; HEK cells stably transfected with hSCN9A (Homo sapiens)	Met
Cn1nccc1-c1cc(C(F)(F)F)ncc1Oc1ccc(S(=O)(=O)Nc2cscn2)cc1C#N	Nav1.7 (or SCN9A) channel; HEK cells stably transfected with hSCN9A (Homo sapiens)	Not met
N#Cc1cc(S(=O)(=O)Nc2ncns2)ccc1Oc1cc(Cl)c(F)cc1-c1ccn[nH]1	Nav1.7 (or SCN9A) channel; HEK cells stably transfected with hSCN9A (Homo sapiens)	Met
N#Cc1cc(S(=O)(=O)Nc2cscn2)ccc1Oc1ccc(Cl)cc1-c1cnn(C(F)F)c1	Nav1.7 (or SCN9A) channel; HEK cells stably transfected with hSCN9A (Homo sapiens)	Not met
Cn1ncc(F)c1-c1cc(Cl)ccc1Oc1ccc(S(=O)(=O)Nc2nccs2)cc1F	Nav1.7 (or SCN9A) channel; HEK cells stably transfected with hSCN9A (Homo sapiens)	Not met
N#Cc1cc(S(=O)(=O)Nc2ncc(F)s2)ccc1Oc1ccc(Cl)c(Cn2ccnn2)c1	Nav1.7 (or SCN9A) channel; HEK cells stably transfected with hSCN9A (Homo sapiens)	Not met
Cn1nc(-c2ccc(Oc3ccc(S(=O)(=O)Nc4nccs4)cc3C#N)cc2)cc1C(F)(F)F	Nav1.7 (or SCN9A) channel; HEK cells stably transfected with hSCN9A (Homo sapiens)	Not met
N#Cc1cc(S(=O)(=O)Nc2nccs2)ccc1Oc1ccc(-c2cc(C(F)(F)F)nn2CCO)cc1	Nav1.7 (or SCN9A) channel; HEK cells stably transfected with hSCN9A (Homo sapiens)	Met
Cn1nccc1-c1ccc(Cl)cc1Oc1ccc(S(=O)(=O)Nc2nccs2)cc1C#N	Nav1.7 (or SCN9A) channel; HEK cells stably transfected with hSCN9A (Homo sapiens)	Met
N#Cc1cc(S(=O)(=O)Nc2nccs2)ccc1Oc1cccc(-n2nc(C(F)F)cc2CO)c1	Nav1.7 (or SCN9A) channel; HEK cells stably transfected with hSCN9A (Homo sapiens)	Not met
Cn1nccc1-c1cc(F)ccc1Oc1c(F)cc(S(=O)(=O)Nc2ncns2)cc1C#N	Nav1.7 (or SCN9A) channel; HEK cells stably transfected with hSCN9A (Homo sapiens)	Not met
N#Cc1ccnc(NS(=O)(=O)c2ccc(Oc3ccccc3-c3ccccc3)c(C#N)c2)n1	Nav1.7 (or SCN9A) channel; HEK cells stably transfected with hSCN9A (Homo sapiens)	Not met
Nc1cccc(-c2cc(F)ccc2Oc2cc(F)c(S(=O)(=O)Nc3ncns3)cc2Cl)n1	Nav1.7 (or SCN9A) channel; HEK cells stably transfected with hSCN9A (Homo sapiens)	Met
Cc1coc(-c2ccc(Oc3ccc(S(=O)(=O)Nc4nccs4)cc3C#N)cc2)n1	Nav1.7 (or SCN9A) channel; HEK cells stably transfected with hSCN9A (Homo sapiens)	Not met
O=S(=O)(Nc1ccncn1)c1ccc(Oc2ccc(Cl)cc2-c2ccn[nH]2)c(Cl)c1	Nav1.7 (or SCN9A) channel; HEK cells stably transfected with hSCN9A (Homo sapiens)	Met
Cn1nccc1-c1ccccc1Oc1ccc(S(=O)(=O)Nc2cscn2)cc1I	Nav1.7 (or SCN9A) channel; HEK cells stably transfected with hSCN9A (Homo sapiens)	Not met
O=S(=O)(Nc1nccs1)c1ccc(Oc2ccc(Cl)cc2-c2ccn[nH]2)c(F)c1	Nav1.7 (or SCN9A) channel; HEK cells stably transfected with hSCN9A (Homo sapiens)	Not met
Nc1cccc(-c2cc(Cl)ccc2Oc2cc(F)c(S(=O)(=O)Nc3ncns3)cc2F)n1	Nav1.7 (or SCN9A) channel; HEK cells stably transfected with hSCN9A (Homo sapiens)	Met
N#Cc1cc(S(=O)(=O)Nc2cscn2)ccc1Oc1ccc(Cl)c(Cn2ccnc2)c1	Nav1.7 (or SCN9A) channel; HEK cells stably transfected with hSCN9A (Homo sapiens)	Not met
N#Cc1cc(S(=O)(=O)Nc2nccs2)ccc1Oc1ccc(Cl)cc1-c1cncnc1	Nav1.7 (or SCN9A) channel; HEK cells stably transfected with hSCN9A (Homo sapiens)	Not met
